Known pIC50 of a selection of compounds
SUBJECT OF TEST: Wee1 kinase domain (Homo sapiens, UniProt P30291)
Construct: Wee1 kinase domain was purchased from Carna (catalog #05-177); purchased Carna 05-177
Sequence (P30291 299-569 limits assumed): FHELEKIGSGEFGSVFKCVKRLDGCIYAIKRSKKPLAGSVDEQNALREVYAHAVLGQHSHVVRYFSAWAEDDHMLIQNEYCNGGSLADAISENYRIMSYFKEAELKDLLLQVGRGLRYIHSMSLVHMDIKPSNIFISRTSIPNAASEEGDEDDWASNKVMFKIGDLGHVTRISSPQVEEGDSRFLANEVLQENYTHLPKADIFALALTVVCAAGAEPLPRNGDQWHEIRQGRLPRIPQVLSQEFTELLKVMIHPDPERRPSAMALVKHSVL
ASSAY EXPLANATION: Wee1 Kinase Biochemical Assay (ADP-Glo)
ASSAY CONTEXT: class symbols; 1 nM Wee1 enzyme, 15 uM ATP, 4 hours at 25° C.
pIC50: −log10 of the molar value.

Incoming: Request the reported pIC50 associated with CC1(C)C[C@@H]2N(c3cccc([C@H]4CCNC4)n3)c3nc(Nc4ccc(N5CCOCC5)cc4)ncc3[C@]2(C)CO1 (single isomer, unassigned) [Example 540]
Outgoing: 7.00 to 8.00

---

Measured pIC50, listed per entry for reference.
SUBJECT OF TEST: Wee1 kinase domain (Homo sapiens)
Construct: Wee1 kinase domain was purchased from Carna (catalog #05-177); purchased Carna 05-177
ASSAY EXPLANATION: Wee1 Kinase Biochemical Assay (ADP-Glo)
ASSAY CONTEXT: Wee1 kinase domain, 15 uM ATP, ADP-Glo
pIC50: −log10 of the molar value.

molecule="CNCc1cccc(N2c3nc(Nc4ccc([C@]5(C)CCN(C)C5=O)cc4)ncc3[C@]3(C)COC(C)(C)C[C@H]23)n1 (single isomer, unassigned) [Example 77]" subject_of_test="Wee1 kinase domain (Homo sapiens)" measurement_kind=pIC50 reported_value="6.00 to 7.00"
molecule="CNC(=O)c1ccc(Nc2ncc3c(n2)N(c2cccc(N=S(C)(C)=O)n2)[C@@H]2CC(C)(C)OC[C@]32C)cc1F [Example 119]" subject_of_test="Wee1 kinase domain (Homo sapiens)" measurement_kind=pIC50 reported_value="> 8.00"
molecule="CC1(C)C[C@@H]2N(c3cccc(N=S(C)(C)=O)n3)c3nc(Nc4ccc([C@H]5CCCN5)nc4)ncc3[C@]2(C)CO1 (single isomer, unassigned) [Example 211]" subject_of_test="Wee1 kinase domain (Homo sapiens)" measurement_kind=pIC50 reported_value="7.00 to 8.00"
molecule="Cc1cc(Nc2ncc3c(n2)N(c2cccc(N=S(C)(C)=O)n2)[C@@H]2CC(C)(C)OC[C@]32C)ccc1[C@@H]1COCCN1 (single isomer, unassigned) [Example 114]" subject_of_test="Wee1 kinase domain (Homo sapiens)" measurement_kind=pIC50 reported_value="> 8.00"

Now consider a different molecule.
Incoming: // returns reported pIC50 for input C[C@H]1COC(=O)N1c1cccc(N2c3nc(Nc4ccn(C)c(=O)c4)ncc3[C@@]3(C)COC(C)(C)C[C@@H]23)n1 (single isomer, unassigned) [Example 341]
Outgoing: > 8.00

---

Tested on: phosphorylation of Cdc2 Y15 (Wee1 substrate) in A427 cells
ASSAY EXPLANATION: Phosphorylated Cdc2 MSD Electrochemiluminescence Assay
Format: cell-based
ASSAY CONTEXT: Homo sapiens, A-427, pCDC2 MSD
Entries and their IC50

Some compounds with recorded IC50:
compound="CN1CCc2ccc(Nc3ncc4c(n3)N(c3cccc(N=S(C)(C)=O)n3)[C@@H]3CC(C)(C)OC[C@]43C)cc2C1 (single isomer, unassigned)" measurement_kind=IC50 reported_value="< 100 nM"
compound="Cc1cc(Nc2ncc3c(n2)N(c2cccc(N=S(C)(C)=O)n2)[C@@H]2CC(C)(C)OC[C@]32C)ccc1[C@@H]1CCN(C)C1 (single isomer, unassigned)" measurement_kind=IC50 reported_value="< 100 nM"
compound="CNCc1cccc(N2c3nc(Nc4ccc([C@H]5CCC(=O)N5C)cc4)ncc3[C@@]3(C)COC(C)(C)C[C@@H]23)n1 (single isomer, unassigned)" measurement_kind=IC50 reported_value="< 100 nM"
compound="CC1(C)C[C@H]2N(c3cccc([C@H]4CCCN4)n3)c3nc(Nc4ccn(C5CCOCC5)c(=O)c4)ncc3[C@@]2(C)CO1 (single isomer, unassigned)" measurement_kind=IC50 reported_value="1000 to 10000 nM"

Attention now shifts to the item below.
Incoming: # value lookup — system phosphorylation of Cdc2 Y15 (Wee1 substrate) in A427 cells, readout IC50, item C[C@H]1COC(=O)N1c1cccc(N2c3nc(Nc4ccc([C@H]5CCN(C)C5)nc4)ncc3[C@]3(C)COC(C)(C)C[C@H]23)n1 (single isomer, unassigned)
Outgoing: 100 to 1000 nM

---

SUBJECT OF TEST: Wee1 kinase domain (Homo sapiens)
Construct: Wee1 kinase domain was purchased from Carna (catalog #05-177); purchased Carna 05-177
ASSAY EXPLANATION: Wee1 Kinase Biochemical Assay (ADP-Glo)
ASSAY CONTEXT: Wee1 kinase domain, 15 uM ATP, ADP-Glo
pIC50: −log10 of the molar value.
MEASUREMENT KIND: pIC50

# count of solved cases: 2
molecule="C[C@H]1COC(=O)N1c1cccc(N2c3nc(Nc4ccc(N5CCN(C)CC5)nc4)ncc3[C@@]3(C)COC(C)(C)C[C@@H]23)n1 (single isomer, unassigned)" measurement_kind=pIC50 reported_value="> 8.00"
molecule="CNCc1cccc(N2c3nc(Nc4ccc(N5CC6CC5CO6)cc4)ncc3[C@]3(C)COC(C)(C)C[C@H]23)n1 (stereo in doubt)" measurement_kind=pIC50 reported_value="7.00 to 8.00"

Incoming: # query: pIC50 of entry Cc1cc(Nc2ncc3c(n2)N(c2cccc(N4C(=O)OC[C@@H]4C)n2)[C@H]2CC(C)(C)OC[C@@]32C)ccc1N1C[C@H]2C[C@@H]1CN2C (single isomer, unassigned)
Outgoing: 7.00 to 8.00

Incoming: // returns reported pIC50 for input CN[C@H](C)c1cccc(N2c3nc(Nc4ccn(C5CCOCC5)c(=O)c4)ncc3[C@@]3(C)COC(C)(C)C[C@@H]23)n1 (single isomer, unassigned)
Outgoing: > 8.00

Incoming: State the recorded pIC50 for this entry: CC1(C)C[C@H]2N(c3cccc(N=S(C)(C)=O)n3)c3nc(Nc4ccc([C@H]5CCCN5)nc4)ncc3[C@@]2(C)CO1 (single isomer, unassigned)
Outgoing: > 8.00

---

SUBJECT OF TEST: Wee1 kinase domain (Homo sapiens)
Construct: Wee1 kinase domain was purchased from Carna (catalog #05-177); purchased Carna 05-177
ASSAY EXPLANATION: Wee1 Kinase Biochemical Assay (ADP-Glo)
ASSAY CONTEXT: Wee1 kinase domain, 15 uM ATP, ADP-Glo
Experimental: Wee1 Kinase Biochemical Assay Protocol Wee1 kinase domain was purchased from Carna (catalog #05-177). Wee1 kinase activity was determined with Poly(Lys,Tyr 4:1) hydrobromide as a substrate (Sigma-Aldrich) and by measuring ADP production using the ADP-Glo Kinase Assay kit (Promega) following the manufacturer's instructions. […] The ADP-Glo signal was measured using the Envision plate reader and the percentage inhibition of kinase activity calculated for each inhibitor tested. […]
pIC50: −log10 of the molar value.
MEASUREMENT KIND: pIC50

Below are worked cases with known answers.
molecule="C[C@H]1COC(=O)N1c1cccc(N2c3nc(Nc4ccc(OC5CCNCC5)nc4)ncc3[C@@]3(C)COC(C)(C)C[C@@H]23)n1 (single isomer, unassigned) [Example 325]" reported_value="> 8.00"
molecule="CN1CCC(n2ccc(Nc3ncc4c(n3)N(c3cccc(N=S(C)(C)=O)n3)[C@@H]3CC(C)(C)OC[C@]43C)n2)CC1 (single isomer, unassigned) [Example 229]" reported_value="7.00 to 8.00"

Incoming: Could you share which pIC50 value was measured for C[C@H]1COC(=O)N1c1cccc(N2c3nc(Nc4ccc(O[C@H]5CCN(C)C5)nc4)ncc3[C@@]3(C)COC(C)(C)C[C@@H]23)n1 (single isomer, unassigned) [Example 281] ?
Outgoing: > 8.00

---

pIC50 listing for selected compounds.
SUBJECT OF TEST: Wee1 kinase domain (Homo sapiens, UniProt P30291)
Construct: Wee1 kinase domain was purchased from Carna (catalog #05-177); purchased Carna 05-177
ASSAY EXPLANATION: Wee1 Kinase Biochemical Assay (ADP-Glo)
ASSAY CONTEXT: class symbols; 1 nM Wee1 enzyme, 15 uM ATP, 4 hours at 25° C.
pIC50: −log10 of the molar value.

Sample records with pIC50:
compound="CNCc1cccc(N2c3nc(Nc4ccc(-n5ccnc5)nc4)ncc3[C@]3(C)COC(C)(C)C[C@H]23)n1 (single isomer, unassigned)" subject_of_test="Wee1 kinase domain (Homo sapiens, UniProt P30291)" reported_value="≤ 6.00"
compound=CN1CC[C@H](Oc2ccc(Nc3ncc4c(n3)N(c3cccc(N5CCOC5=O)n3)[C@H]3CC(C)(C)OC[C@@]43C)cc2)C1 subject_of_test="Wee1 kinase domain (Homo sapiens, UniProt P30291)" reported_value="6.00 to 7.00"
compound="CN1CC[C@H](Oc2ccc(Nc3ncc4c(n3)N(c3cccc(C(C)(C)O)n3)[C@H]3CC(C)(C)OC[C@@]43C)cc2)C1 (single isomer, unassigned)" subject_of_test="Wee1 kinase domain (Homo sapiens, UniProt P30291)" reported_value="7.00 to 8.00"

Incoming: For the compound shown here, CC1(C)C[C@H]2N(c3cccc(P(C)(C)=O)n3)c3nc(Nc4ccn(C5CCOCC5)c(=O)c4)ncc3[C@@]2(C)CO1 (single isomer, unassigned) , give the reported pIC50.
Outgoing: > 8.00

Incoming: Return reported pIC50; argument: CN1CC[C@@H]2CN(c3ccc(Nc4ncc5c(n4)N(c4cccc(N6CCOC6=O)n4)[C@H]4CC(C)(C)OC[C@@]54C)cc3)C[C@@H]21
Outgoing: 7.00 to 8.00

Incoming: Given CN1CCC(n2cc(Nc3ncc4c(n3)N(c3cccc(N=S(C)(C)=O)c3)[C@H]3CC(C)(C)OC[C@@]43C)cn2)CC1 , state its recorded pIC50.
Outgoing: 6.00 to 7.00
